- Tested on: LOX IMVI
- assay_summary: NCI tumour cell line growth inhibition, 48 h
The source made the active and inactive calls. Cut-off read from the data, not from the text of the source: active = GI50 up to about 1.1 µM and inactive = higher.
readout: GI50

Field: example entries. Status: answers known.
[[record]]
compound = "CN(C)c1ccc(/N=C2/NC(=N\\c3ccccc3)/C(=N/c3ccccc3)S2)cc1"
readout = "GI50"
measured_value = "37.6 µM (inactive)"

[[record]]
compound = "Cc1cc(Br)cc(C)c1NC(=O)C(=O)C(C(=O)c1ccc2ccccc2c1)C1OC(=O)c2ccccc21 (stereo not drawn)"
readout = "GI50"
measured_value = "12.1 µM (inactive)"

[[record]]
compound = "CC1(C)CCC2(C(=O)O)C(O)CC3(C)C(=CCC4C5(C)CCC(OC6OCC(O)C(O)C6OC6OCC(O)C(O)C6OC6OCC(O)C(OC7OC(CO)C(O)C(O)C7O)C6O)C(C)(C)C5CCC43C)C2C1 (stereo not drawn)"
readout = "GI50"
measured_value = "47.5 µM (inactive)"

[[record]]
compound = "COC(=O)/C(C#N)=C(/NCc1ccccc1)Nc1ccccc1"
readout = "GI50"
measured_value = "61.2 µM (inactive)"

[[record]]
compound = "O=S(=O)(C/C(=N\\O)c1ccccc1)c1ccccc1"
readout = "GI50"
measured_value = "> 100 µM (inactive)"

[[record]]
compound = "N#CC(NCc1cccc(CNC(C#N)c2ccccc2)c1)c1ccccc1 (stereo not drawn)"
readout = "GI50"
measured_value = "15 µM (inactive)"

[[record]]
compound = "COc1cc(/C=C2\\CCC(C)c3c2nc(N)c(C#N)c3-c2cc(OC)c(OC)c(OC)c2)cc(OC)c1OC (stereo not drawn)"
readout = "GI50"
measured_value = "41.5 µM (inactive)"

[[record]]
compound = "Cc1sc2nc(N(C)C)oc(=O)c2c1C"
readout = "GI50"
measured_value = "> 100 µM (inactive)"


Now, please, on to the next compound.
Would you kindly share the measured GI50 for O=C(Nc1ccc2ccccc2c1)c1cc2cc(CCl)ccc2oc1=O ? > 100 µM (inactive)

Data origin, for the record: ChEMBL document CHEMBL1201862
